- conditions: bacteroides fragilis, 12 h, 2 µM
- Description: The drug is tested on Bacteroides fragilis strain: 3397 (T10) for biotransformation. The drug concentrations were measured before and after a 12-h incubation by liquid-chromatography-coupled mass spectrometry (LC–MS)
measurement.kind: Bacterial Biotransformation

Previously resolved entries follow.
compound: CCOc1ccc(NC(C)=O)cc1
Bacterial Biotransformation: Compound NOT metabolized

compound: O=c1n(CCCN2CCN(c3cccc(Cl)c3)CC2)nc2ccccn12
Bacterial Biotransformation: Compound NOT metabolized

compound: CN1CCN2c3ccccc3Cc3ccccc3C2C1 (centres undefined)
Bacterial Biotransformation: Compound NOT metabolized

compound: COC(=O)C(c1ccccc1)C1CCCCN1 (centres undefined) [METHYLPHENIDATE]
Bacterial Biotransformation: Compound NOT metabolized

compound: COc1ccccc1N1CCN(CC(O)COc2cccc3ccccc23)CC1 (centres undefined)
Bacterial Biotransformation: Compound NOT metabolized

compound: O=C(CCCN1CCC2(CC1)C(=O)NCN2c1ccccc1)c1ccc(F)cc1
Bacterial Biotransformation: Compound NOT metabolized

compound: Clc1cccc(Cl)c1N=C1NCCN1
Bacterial Biotransformation: Compound metabolized

compound: Cc1ccc(S(=O)(=O)NC(=O)NN2CCCCCC2)cc1 [TOLAZAMIDE]
Bacterial Biotransformation: Compound metabolized

So what does the record say about Bacterial Biotransformation for COC(=O)[C@H]1[C@H]2C[C@@H]3c4[nH]c5cc(OC)ccc5c4CCN3C[C@H]2C[C@@H](OC(=O)c2cc(OC)c(OC)c(OC)c2)[C@@H]1OC ? Compound NOT metabolized

Which Bacterial Biotransformation is listed for CCN(CC)C(=O)/C(C#N)=C/c1cc(O)c(O)c([N+](=O)[O-])c1 ? Compound metabolized

What value of Bacterial Biotransformation has been reported for the following compound? CCc1nn(CCCN2CCN(c3cccc(Cl)c3)CC2)c(=O)n1CCOc1ccccc1 Compound NOT metabolized

Dear colleague, I am looking for the recorded Bacterial Biotransformation of the following compound: NS(=O)(=O)c1cc2c(cc1Cl)N=C(CSCc1ccccc1)NS2(=O)=O [BENZTHIAZIDE] Compound NOT metabolized

Sample COc1ccc(/C=C/C(=O)Nc2ccccc2C(=O)O)cc1OC — what was its Bacterial Biotransformation? Compound NOT metabolized

Form field: reported Bacterial Biotransformation of CN1CC(=O)N2[C@H](c3ccc4c(c3)OCO4)c3[nH]c4ccccc4c3C[C@@H]2C1=O Compound NOT metabolized

Which Bacterial Biotransformation value belongs to CC(=O)OCC(CCn1cnc2cnc(N)nc21)COC(C)=O ? Compound metabolized

Need Bacterial Biotransformation, item Br.CN1CCC[C@@H]1Cc1c[nH]c2ccc(CCS(=O)(=O)c3ccccc3)cc12 [ELETRIPTAN HYDROBROMIDE] Compound NOT metabolized

Bacterial Biotransformation lookup needed for CN1[C@@H]2CC[C@H]1C[C@@H](OC(=O)C(CO)c1ccccc1)C2 (some centres undefined) , thanks. Compound NOT metabolized

# input compound: CC(CCc1ccccc1)NCC(O)c1ccc(O)c(C(N)=O)c1 (centres undefined) ; wanted: its Bacterial Biotransformation Compound NOT metabolized

Look up Bacterial Biotransformation: CCS(=O)(=O)CCn1c([N+](=O)[O-])cnc1C Compound metabolized
